B1: tRNA (parent)
chain: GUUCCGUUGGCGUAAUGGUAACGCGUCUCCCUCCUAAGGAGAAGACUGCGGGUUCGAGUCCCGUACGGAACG

Variants of: B1
Test: yeast fitness, log relative to wild type (ln ratio); higher = fitter; tRNA-Arg(CCU), competitive growth, 37 C, 1 M NaCl
Classification scheme (yeast fitness (ln)): low: < -0.2; moderate: ≥ -0.2 and < -0.1; high: ≥ -0.1

-- ask Band assignment needed for G6U A43C C46U C66A please.
-- reply high

-- ask Band assignment needed for U2G C27U C66U A69G A70G please.
-- reply low

Further cases:
-- ask Band assignment needed for G6A C66A A69G A70G please.
-- reply moderate

-- ask Band assignment needed for G6U C27U C66A A69G A70G please.
-- reply low

-- ask Band assignment needed for G1A U2G A43C C46U C66A C71U please.
-- reply moderate

The measurements presented in this section are drawn from the RNAGym collection of RNA variant scans (doi:10.1038/s41586-018-0170-7).
